Experiment: Solubilization of WHI-P131 in water-cosolvent mixtures and micellar solutions
Type: physicochemical
Details: 20% PEG300 plus 3% PEG2000-DPPE micellar solution, aqueous with cosolvent or surfactant or cyclodextrin, chloride salt, 20% PEG300 plus 3% PEG2000-DPPE; read-out: Drug solubilization in cosolvent/micellar vehicle
assay_metric: Solubility (µg/mL)
Give the quantity in µg/mL, number only.

What does the data say about its Solubility? Entry: COc1cc2ncnc(Nc3ccc(O)cc3)c2cc1OC 4700

* * *

Test: Solubilization of WHI-P131 in water-cosolvent mixtures and micellar solutions
Type: physicochemical
Settings: 20% PEG300 in water, aqueous with cosolvent or surfactant or cyclodextrin, chloride salt, 20% PEG300, no surfactant; read-out: Solubility in 20% PEG300
Where a name gives a salt, the structure may show the parent alone.
assay_metric: Solubility

What does the data say about its Solubility? Entry: COc1cc2ncnc(Nc3ccc(O)cc3)c2cc1OC [WHI-P131 Chloride salt] 2380 µg/mL

* * *

Structures can show the parent of a compound that is named as a salt.
assay_metric: melting point

What does the data say about its melting point? Entry: COc1cc2ncnc(Nc3ncccc3O)c2cc1OC 185 to 187 °C

What does the data say about its melting point? Entry: COc1cc2ncnc(Nc3cc(-c4ccccc4)c(O)c(-c4ccccc4)c3)c2cc1OC 255 to 257 °C

What does the data say about its melting point? Entry: COc1cc2ncnc(Nc3ccc(O)c(C(=O)O)c3)c2cc1OC > 300 °C

What does the data say about its melting point? Entry: COc1cc2ncnc(Nc3c(Br)cccc3Br)c2cc1OC 243 to 246 °C

What does the data say about its melting point? Entry: COc1cc2ncnc(Nc3ccccc3Br)c2cc1OC (as salt: salt) 241 to 243 °C

What does the data say about its melting point? Entry: COc1cc2ncnc(Nc3cc(Br)c(C)cc3Br)c2cc1OC (as salt: salt) 282 to 284 °C

What does the data say about its melting point? Entry: COc1cc2ncnc(Nc3ccc(Br)cc3Br)c2cc1OC 257 to 262 °C

What does the data say about its melting point? Entry: COc1cc2ncnc(Nc3cc(Cl)ccc3O)c2cc1OC (as salt: salt) 295 °C (dec.)

What does the data say about its melting point? Entry: COc1cc2ncnc(Nc3ccc(I)cc3)c2cc1OC (as salt: salt) 240 to 242 °C

What does the data say about its melting point? Entry: COc1cc2ncnc(Nc3ccccc3CO)c2cc1OC 215 to 218 °C

What does the data say about its melting point? Entry: COc1cc2ncnc(Nc3ccc(C(F)(F)F)cc3)c2cc1OC 243 to 245 °C

What does the data say about its melting point? Entry: COc1cc2ncnc(Nc3ccc(Br)cc3C(=O)O)c2cc1OC > 300 °C

What does the data say about its melting point? Entry: COc1cc2ncnc(Nc3c(Br)cc(C)cc3Br)c2cc1OC 235 to 237 °C

What does the data say about its melting point? Entry: COc1cc2ncnc(Nc3ccc(C)c(Br)c3Br)c2cc1OC 233 to 236 °C

What does the data say about its melting point? Entry: COc1cc2ncnc(Nc3c(Br)cc(Br)cc3Br)c2cc1OC 250 to 255 °C

What does the data say about its melting point? Entry: COc1cc2ncnc(Nc3ccc(CCO)cc3)c2cc1OC 235 to 240 °C

What does the data say about its melting point? Entry: COc1cc2ncnc(Nc3ccccc3C(F)(F)F)c2cc1OC 242 to 245 °C

What does the data say about its melting point? Entry: COc1cc2ncnc(Nc3cnc(O)nc3O)c2cc1OC > 300 °C

What does the data say about its melting point? Entry: COc1cc2ncnc(Nc3ccc4c(c3)Cc3cc(Br)ccc3-4)c2cc1OC (as salt: salt) 254 to 256 °C

What does the data say about its melting point? Entry: COc1cc2ncnc(Nc3ccccc3I)c2cc1OC (as salt: salt) 225 to 230 °C

What does the data say about its melting point? Entry: COc1cc2ncnc(Nc3ccc(O)c(I)c3)c2cc1OC (as salt: salt) 248 to 250 °C

What does the data say about its melting point? Entry: COc1cc2ncnc(Nc3cccc4c(O)cccc34)c2cc1OC (as salt: salt) 204 to 205 °C

What does the data say about its melting point? Entry: COc1cc2ncnc(Nc3c(F)c(F)c(Br)c(F)c3F)c2cc1OC (as salt: salt) 180 to 182 °C

What does the data say about its melting point? Entry: COc1cc2ncnc(Nc3cccc(C(C)O)c3)c2cc1OC (centres unmarked) 215 to 218 °C

What does the data say about its melting point? Entry: COc1cc2ncnc(Nc3ccc(Br)cc3CO)c2cc1OC (as salt: salt) 222 to 223 °C

What does the data say about its melting point? Entry: COc1cc2ncnc(Nc3cc(F)c(O)c(F)c3)c2cc1OC (as salt: salt) 228 to 230 °C

What does the data say about its melting point? Entry: COc1cc2ncnc(Nc3ccc(O)c(F)c3)c2cc1OC (as salt: salt) 268 to 270 °C

What does the data say about its melting point? Entry: COc1cc2ncnc(Nc3ccc(Cl)c4ccccc34)c2cc1OC (as salt: salt) 245 to 248 °C

What does the data say about its melting point? Entry: COc1cc2ncnc(Nc3cc(C(F)(F)F)cc(C(F)(F)F)c3)c2cc1OC (as salt: salt) 270 to 272 °C

What does the data say about its melting point? Entry: COc1cc2ncnc(Nc3ccc(C)c(Br)c3)c2cc1OC (as salt: salt) 225 to 228 °C

What does the data say about its melting point? Entry: COc1cc2ncnc(Nc3ccccc3OC(F)(F)F)c2cc1OC (as salt: salt) 235 to 237 °C

What does the data say about its melting point? Entry: COc1cc2ncnc(Nc3ccc(O)cc3Cl)c2cc1OC (as salt: salt) 245 to 247 °C

What does the data say about its melting point? Entry: COc1cc2ncnc(Nc3ccc(C(c4ccc(N)cc4)(C(F)(F)F)C(F)(F)F)cc3)c2cc1OC (as salt: salt) 280 to 282 °C

What does the data say about its melting point? Entry: COc1cc2ncnc(Nc3cc(Br)c(C)c(Br)c3)c2cc1OC 275 to 279 °C

What does the data say about its melting point? Entry: COc1cc2ncnc(Nc3cc(I)c(O)c(I)c3)c2cc1OC (as salt: salt) 259 to 260 °C

What does the data say about its melting point? Entry: COc1cc2ncnc(Nc3c(O)ccc4ccccc34)c2cc1OC (as salt: salt) 218 to 220 °C

What does the data say about its melting point? Entry: COc1cc2ncnc(Nc3ccc(O)cc3O)c2cc1OC 240 °C (dec.)

What does the data say about its melting point? Entry: COc1cc2ncnc(Nc3cc(Cl)c(O)c(Cl)c3)c2cc1OC 293 to 295 °C

Reference for the values: patent US20020111360A1
